molecular target: catalytic domain of human stromelysin (Hsln) (Homo sapiens); construct: The catalytic domain of human stromelysin (Hsln) was obtained by expression and purification of a C-terminally truncated prostromelysin-1; assay: Fluorometric MCA-peptide hydrolysis assay, stromelysin (Hsln); details: apparent Ki; 10 μM MCA peptide substrate, 37° C., pH 7.5; read-out: Hsln (Ki,app)
Sequence (P08254 100-272 limits assumed): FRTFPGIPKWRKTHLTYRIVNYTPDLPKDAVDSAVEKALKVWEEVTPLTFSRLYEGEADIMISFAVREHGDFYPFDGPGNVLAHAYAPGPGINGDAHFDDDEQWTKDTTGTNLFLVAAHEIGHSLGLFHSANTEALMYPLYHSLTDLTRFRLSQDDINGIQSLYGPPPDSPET
Listed next: entries and their corresponding pKi.
Would you please state pKi, meaning minus log10 of the concentration in mol/L, as a bare number?

compound	pKi
CNC(=O)[C@@H](NC(=O)[C@@H](CC(=O)O)n1ccc(-c2ccncc2)c1)C(C)(C)C	5.91

Please look at the following compound next.
Form field, pKi with catalytic domain of human stromelysin (Hsln) (Homo sapiens), item CC1(C)COC(=O)[C@H]1NC(=O)[C@@H](CC(=O)O)n1ccc(-c2ccc(-c3ccncc3)cc2)c1 : 7.27

###

Listed next: entries and their corresponding melting point.
Where a name gives a salt, the structure may show the parent alone.

Below, each entry is followed by its recorded melting point result.
compound	melting point
O=C(O)C[C@H](C(=O)N[C@H](CO)Cc1ccccc1)n1cc(-c2ccc(-c3ccccc3)cc2)cn1	154 to 159 °C
CC(C)C[C@H](NC(=O)[C@@H](CC(=O)O)c1ccn(-c2ccc(-c3ccc(C#N)cc3)cc2)c1)c1ncc[nH]1	206 to 210 °C (dec.)
COC(=O)c1ccc(NC(=O)[C@H](CC(C)C)NC(=O)[C@@H](CC(=O)O)c2cccs2)cc1	197 to 200 °C
CCC[C@H](C(=O)O)[C@H](C(=O)N[C@H](CO)C(C)(C)C)n1ccc(-c2ccc(-c3ccc(C#N)cc3)cc2)c1	130 to 132 °C

Reported melting point of CC(C)(C)[C@H](NC(=O)[C@@H](CC(=O)O)n1ccc(-c2ccc(-c3ccc(C#N)cc3)cc2)c1)C(=O)Nc1ccncc1 (as salt: salt) [Example 5(d), Formate Salt] : 134 to 136 °C

Reported melting point of COC[C@H](Cc1ccccc1)NC(=O)[C@@H](CC(=O)O)n1ccc(-c2ccc(-c3ccccc3)cc2)c1 : 247 °C

###

test: Determination of inhibitor concentration in plasma after oral dosing; format: in vivo, Sprague Dawley rats; details: Sprague-Dawley, rat plasma, dose 50 mg/kg, vehicle B, dosed as the benzyl ester prodrug
measurementType: AUC (ng·h/mL)
Please give a number only; it is taken to be in ng·h/mL.

Reported AUC of CNC(=O)[C@@H](NC(=O)[C@@H](CC(=O)O)n1ccc(-c2ccc(-c3ccncc3)cc2)c1)C(C)(C)C : 617

###

test: Determination of inhibitor concentration in plasma after oral dosing; assay type: in vivo, Sprague Dawley rats; settings: Sprague-Dawley, rat plasma, dose 50 mg/kg, vehicle A (molar equivalent of HCl in water)
measurementType: AUC (ng·h/mL)
Please give a number only; it is taken to be in ng·h/mL.

Reported AUC of CC(C)(C)[C@@H](CO)NC(=O)[C@@H](CC(=O)O)n1ccc(-c2ccc(-c3ccncc3)cc2)c1 : 3520

###

target: human progelatinase A (GelA), catalytic and fibronectin-like portion (Homo sapiens, UniProt P08253); construct: The catalytic and fibronectin-like portion of human progelatinase A (GelA) was expressed as a fusion protein with ubiquitin; ubiquitin; made in house; host or cells: E. coli; test: Fluorometric MCA-peptide hydrolysis assay, gelatinase A (GelA); format: biochemical; settings: apparent Ki; 10 μM MCA peptide substrate, 37° C., pH 7.5
Sequence (P08253 110-465 limits assumed): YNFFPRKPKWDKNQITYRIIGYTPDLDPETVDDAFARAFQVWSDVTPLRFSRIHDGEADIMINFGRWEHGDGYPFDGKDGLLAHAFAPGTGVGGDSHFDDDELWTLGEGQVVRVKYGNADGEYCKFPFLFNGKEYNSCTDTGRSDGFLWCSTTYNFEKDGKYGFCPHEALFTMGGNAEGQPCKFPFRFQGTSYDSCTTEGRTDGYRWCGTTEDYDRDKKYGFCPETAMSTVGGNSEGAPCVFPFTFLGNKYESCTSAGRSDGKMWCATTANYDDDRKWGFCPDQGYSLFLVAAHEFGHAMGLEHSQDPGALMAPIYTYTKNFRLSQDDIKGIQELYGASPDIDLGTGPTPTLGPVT
measurementType: GelA (Ki,app) (nM)
Please give a number only; it is taken to be in nM.

compound	unitText	GelA (Ki,app)
CCCC(C(=O)O)[C@H](C(=O)N[C@H](CO)Cc1ccccc1)n1ccc(-c2ccc(-c3ccc(C#N)cc3)cc2)c1 (mixture of isomers) [Example 10(b)]	nM	9.6

Reported GelA (Ki,app) of CON(C)C(=O)[C@H](CC(C)C)NC(=O)[C@@H](CC(=O)O)n1ccc(-c2ccc(-c3ccccc3)cc2)c1 [Example 1(l)] : 54

Reported GelA (Ki,app) of CC1(C)COC(=O)[C@H]1NC(=O)[C@@H](CC(=O)O)c1ccn(-c2ccc(-c3ccc(C#N)cc3)cc2)c1 [Example 14(d)] : 0.9

Reported GelA (Ki,app) of NC(=O)c1ccc(-c2ccc(-c3ccn([C@H](CC(=O)O)C(=O)N[C@H](CO)Cc4ccccc4)c3)cc2)cc1 [Example 4(b)] : 1.11

Reported GelA (Ki,app) of CCCc1ccc(-c2ccn([C@H](CC(=O)O)C(=O)N[C@H](C(=O)NC)C(C)(C)C)c2)cc1 [Example 1(j)] : 1.43

Reported GelA (Ki,app) of CNC(=O)[C@@H](NC(=O)[C@@H](CC(=O)O)n1ccc(-c2ccc(-c3ccccc3)cc2)c1)C(C)(C)C [Example 1(e)] : 0.108
